measurement.name: melting point

Previously resolved entries follow.
[
  {
    "smiles.notation": "C[C@H]1C(=O)OCN1C(=O)OC(C)(C)C",
    "melting point": "64 to 67 °C"
  },
  {
    "smiles.notation": "Cc1ccc(S(=O)(=O)N2CCC(Sc3ccc(F)cc3)CC2)cc1",
    "melting point": "131 to 132 °C"
  },
  {
    "smiles.notation": "Cc1ccc(C=C2c3ncc(C)cc3CCC2(C)C)cc1",
    "melting point": "153 °C"
  },
  {
    "smiles.notation": "O=c1[nH]c(F)c(Cl)c(Cl)c1Cl",
    "melting point": "172 to 176 °C"
  },
  {
    "smiles.notation": "CC(C)On1nnc2ccc(Cn3ccnc3)cc21",
    "melting point": "114 °C"
  }
]

-- ask # input compound: `CS(=O)(=O)c1ccc(-c2c(-c3ccccc3)[nH]c3ccccc23)cc1` ; wanted: its melting point
-- reply 239 to 241 °C
